# assay_remarks: BSK_SAg_PBMCCytotoxicity: PBMC Cytotoxicity Assessment in the BioMAP Diversity Plus: SAg Assay (AID 2283093);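 note: PBMC viability measured as Alamar Blue reduction fluorescence at 546/580 nm; fitted both ways against DMSO so a hit may be loss or gain of signal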
# assay_conditions: primary human HUVEC with PBMC
The source made the active and inactive calls. Rule for the calls: active = hit-call score of the fitted dose curve at least 0.9, where 1 is the maximum; inactive = score below 0.9.
Thanks in advance; please answer with one of these: 1 for active, -1 for inactive

Solved entries (count: 5):
CCCCC(CC)COC(=O)CCCCCCCCC(=O)OCC(CC)CCCC (stereo unspecified)    -1
CCOC(=O)c1ccc(C2CCC(NC[C@H](O)COc3ccc(O)c(NS(C)(=O)=O)c3)CC2)cc1 (stereo partly specified)    1
CC(C)CCCCCCOC(=O)c1ccc(C(=O)OCCCCCCC(C)C)c(C(=O)OCCCCCCC(C)C)c1    -1
Cn1c(=O)cc(Oc2ccc(F)cc2F)c2cnc(NCC(C)(C)O)nc21    -1
COCCOc1cc2cc(C(=O)NC3CCN(C(C)C)CC3)n(CC(=O)Nc3ccc(Cl)cn3)c2cn1    -1

Prompt line: Could you please tell me the result logged for CCCCCCc1ccc(O)cc1O in this assay?
Response line: 1

Prompt line: Which result was noted for this compound in the test: CCOCCO
Response line: -1

Numbers sourced from PubChem BioAssay (EPA / NIEHS).
